The listing below reports IC50 for molecules tested on UniProtKB Q99685.
recorded-endpoint: IC50 (nM)

A: O=C(N1CC2(CC(c3nc(C4CC4)n[nH]3)C2)C1)N1CC2(CN(Cc3cnn(C(F)(F)F)c3)C2)C1 [compound 513]
B: CS(=O)(=O)c1cc(F)ccc1CC1CC2(C1)CN(C(=O)N1CC3(CC(c4nnc(C5CCC5)[nH]4)C3)C1)C2 [compound 25]
C: CC(C)(C)Cc1nnc(C23CC(C4CCN(C(=O)N5CC6(CC(c7nc(C8(O)CC8)n[nH]7)C6)C5)CC4)(C2)C3)o1 [compound 498]
Exam item: Using the list above, order everything by rising IC50. The reply should contain the labels ordered as requested.
Marked response: B, A, C

* * *

Listed here: compounds with reported pIC50 for MAGL protein (Homo sapiens).
pIC50: −log10 of the molar value.
recorded-endpoint: pIC50

Study these solved cases before continuing.
[
  {
    "compound": "O=C(N1CC2(CC(Cc3cnc(C(F)(F)F)nc3)C2)C1)N1CC2(CC(c3nnc(C4(O)CC4)[nH]3)C2)C1 [compound 21]",
    "pIC50": 8.27
  },
  {
    "compound": "O=C(N1CC(OCc2ccc(C(F)(F)F)cc2F)C1)N1CC2(CC(c3nnc(C4(O)CC4)[nH]3)C2)C1 [compound 324]",
    "pIC50": 7.84
  },
  {
    "compound": "O=C(N1CC2(CC(c3nc(C4CC4)n[nH]3)C2)C1)N1CC2(CCN(Cc3ccc(C(F)(F)F)nc3)C2)C1 [compound 804]",
    "pIC50": 8.15
  },
  {
    "compound": "O=C(N1CC(NCc2ccc(OC(F)(F)F)cc2)C1)N1CC2(CC(c3nnc(C4CC4)[nH]3)C2)C1 [compound 191]",
    "pIC50": 7.34
  },
  {
    "compound": "O=C(N1CC2(CC(OCC3(C(F)(F)F)CC3)C2)C1)N1CC2(CC(c3nnc(C4(O)CC4)[nH]3)C2)C1 [compound 69]",
    "pIC50": 7.67
  },
  {
    "compound": "O=C(N1CC2(CC(Cc3ccc(S(=O)(=O)C4CC4)cc3)C2)C1)N1CC2(CC(c3nc(C4CC4)n[nH]3)C2)C1 [compound 859]",
    "pIC50": 9.72
  }
]

I: Cn1cnc(C#N)c1CN1CC2(C1)CN(C(=O)N1CC3(CC(c4nc(C5CC5)n[nH]4)C3)C1)C2 [compound 537]
II: O=C(N1CC2(CCN(Cc3cc(C(F)(F)F)no3)CC2)C1)N1CC2(CC(c3nc(C4CC4)n[nH]3)C2)C1 [Example 955]
Exam item: Which of the two gives a bigger number for pIC50: I or II ? Pick one and reply with its label.
Marked response: II
(II: 7.64, I: 6.62)

A: O=C(N1CCC(C23CC(c4nnc(C5(C(F)(F)F)CC5)o4)(C2)C3)CC1)N1CC2(CC(c3nc(C4CC4)n[nH]3)C2)C1 [compound 418]
B: O=C(N1CC2(CCC(NS(=O)(=O)c3cccc(OC(F)(F)F)c3)CC2)C1)N1CC2(CC(c3nnc(C4CC4)[nH]3)C2)C1 [compound 348]
Exam item: Determine, for A and B , which has the greater value of pIC50. Provide the label of your selected option as the answer.
Marked response: B

1: Cc1csc(CN2CC3(C2)CN(C(=O)N2CC4(CC(c5nnc(C6CC6)[nH]5)C4)C2)C3)n1 [Example 895]
2: Cc1onc(C2CC2)c1CN1CC2(C1)CN(C(=O)N1CC3(CC(c4nc(C5CC5)n[nH]4)C3)C1)C2 [compound 686]
3: CC(C)(C)Cc1nnc(C23CC(C4CN(C(=O)N5CC6(CC(c7nc(C8(F)CC8)n[nH]7)C6)C5)C4)(C2)C3)s1 [compound 492]
Exam item: Rank items: key pIC50, increasing. Provide the ranking by listing each label in its place in the requested order.
Marked response: 1, 2, 3
(1: 7.63, 2: 7.85, 3: 8.42)

P: O=C(N1CC(c2ccc(N3CC4(CCOC4)C3)nc2)C1)N1CC2(CC(c3nnc(C4CC4)[nH]3)C2)C1 [compound 290]
Q: COC(=O)c1ccccc1CN1CC2(C1)CN(C(=O)N1CC3(CC(c4nnc(C5CC5)[nH]4)C3)C1)C2 [Example 171]
R: O=C(N1CC(c2ccc(N3CCC(C(F)(F)F)CC3=O)cc2)C1)N1CC2(CC(c3nnc(C4CC4)[nH]3)C2)C1 (single isomer, unassigned) [compound 279]
S: O=C(N1CC2(CC(Cn3ncnc3C(F)(F)F)C2)C1)N1CC2(CC(c3nc(C4CC4)n[nH]3)C2)C1 [compound 444]
Exam item: Order the 4 compounds from highest to lowest pIC50. Please list each label once, in the requested order.
Marked response: S, R, Q, P

a: CC1(NCC2CC3(C2)CN(C(=O)N2CC4(CC(c5nnc(C6CC6)[nH]5)C4)C2)C3)CS(=O)(=O)C1 [compound 357]
b: O=C(N1CC(c2ccc(NCC3(C(F)(F)F)CC3)cn2)C1)N1CC2(CC(c3nnc(C4CC4)[nH]3)C2)C1 [compound 256]
Exam item: Select the item whose pIC50 value is smaller, choosing between a and b . Write the label of whichever entry you select.
Marked response: a

1: O=C(N1CC(c2cnc(OCC3(C(F)(F)F)CC3)cn2)C1)N1CC2(CC(c3nc(C4(F)CC4)n[nH]3)C2)C1 [compound 431]
2: O=C(N1CC2(CC(c3nnc(C4(O)CC4)[nH]3)C2)C1)N1CC2(C1)CN(S(=O)(=O)c1cccc(C(F)(F)F)c1)C2 [compound 100]
3: O=C(N1CC2(CC(c3nc(C4CC4)n[nH]3)C2)C1)N1CC2(CN(Cc3cc(C(F)(F)F)sn3)C2)C1 [compound 675]
4: O=C(N1CC(c2cnc(C3(C(F)(F)F)CC3)cn2)C1)N1CC2(CC(c3nnc(C4CC4)[nH]3)C2)C1 [compound 233]
5: CP(C)(=O)c1cc(F)cc(CC2CC3(C2)CN(C(=O)N2CC4(CC(c5nc(C6CC6)n[nH]5)C4)C2)C3)c1 [compound 680]
Exam item: # rank by pIC50, ascending (min first) Your task in answering is to list the labels in the requested order.
Marked response: 2, 4, 3, 5, 1
(2: 7.18, 4: 7.86, 3: 8.06, 5: 8.77, 1: 9.41)

A: O=C(N1CC2(CC(Cc3cccc(S(=O)(=O)C(F)(F)F)c3)C2)C1)N1CC2(CC(c3nc(C4CC(F)(F)C4)n[nH]3)C2)C1 [compound 604]
B: Cc1cc(C)n(C23CC(C4CN(C(=O)N5CC6(CC(c7nc(C8CC8)n[nH]7)C6)C5)C4)(C2)C3)n1 [compound 725]
Exam item: Select the item whose pIC50 value is smaller, choosing between A and B . Give the chosen item's label as your response.
Marked response: B
(B: 7.33, A: 8.16)

* * *

Below are IC50 values recorded for UniProt Q99685.
recorded-endpoint: IC50 (nM)

Previously resolved entries follow.
[
  {
    "compound": "Cc1nc(C(F)F)nn1-c1ccc(C2CN(C(=O)N3CC4(CC(c5nnc(C6CC6)[nH]5)C4)C3)C2)cc1",
    "IC50 (nM)": 5.42
  },
  {
    "compound": "N=S(=O)(c1ccc(CC2CC3(C2)CN(C(=O)N2CC4(CC(c5nc(C6CC6)n[nH]5)C4)C2)C3)nc1)C(F)(F)F (stereo not shown)",
    "IC50 (nM)": 1.26
  }
]

P: O=C(N1CC2(CC(c3nc(C4CC4)n[nH]3)C2)C1)N1CC2(CN(Cc3cc(C4CCC4)[nH]n3)C2)C1
Q: O=C(N1CC2(CC(Cc3ccc(F)cc3C(F)(F)F)C2)C1)N1CC2(CC(c3nc(C4CC(F)(F)C4)n[nH]3)C2)C1
Exam item: Identify the entry with the larger IC50. Options: P and Q Give the chosen item's label as your response.
Marked response: P
(P: 5.49 nM, Q: 2.5 nM)

* * *

study-system: MAGL protein (Homo sapiens, UniProt Q99685)
Sequence (Q99685 1-303): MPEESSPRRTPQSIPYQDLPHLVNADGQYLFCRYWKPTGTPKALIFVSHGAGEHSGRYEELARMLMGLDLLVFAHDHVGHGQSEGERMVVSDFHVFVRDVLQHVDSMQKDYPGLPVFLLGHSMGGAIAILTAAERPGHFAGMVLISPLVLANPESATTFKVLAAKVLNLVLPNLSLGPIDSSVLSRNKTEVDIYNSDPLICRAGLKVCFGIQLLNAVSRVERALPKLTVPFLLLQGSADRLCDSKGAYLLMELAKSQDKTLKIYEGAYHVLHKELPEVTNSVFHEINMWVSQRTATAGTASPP
recorded-endpoint: IC50 (nM)

[
  {
    "smiles-structure": "O=C(N1CC2(CC(Cc3n[nH]c(C(F)(F)F)n3)C2)C1)N1CC2(CC(c3nc(C4CC4)n[nH]3)C2)C1",
    "IC50 [nM]": 3.69
  }
]

a: Cc1cc(C2CC2)n(CC2CC3(C2)CN(C(=O)N2CC4(CC(c5nc(C6CC6)n[nH]5)C4)C2)C3)n1
b: O=C(N1CC(c2cnc(C3CC4(CCC4)C3)cn2)C1)N1CC2(CC(c3nnc(C4CC4)[nH]3)C2)C1
Exam item: Which has the smaller recorded IC50, a or b ? Reply briefly: the label of your chosen item.
Marked response: b
(b: 0.48 nM, a: 0.78 nM)

P: O=C(N1CC2(CC(c3nc(C4CC4)n[nH]3)C2)C1)N1CC2(CN(Cc3nc(CC4CC4)no3)C2)C1
Q: CC(C)(C)Cc1nnc(C23CC(C4CN(C(=O)N5CC6(CC(c7nc(C8CC(F)(F)C8)n[nH]7)C6)C5)C4)(C2)C3)s1
R: CS(=O)(=O)c1cc(C(F)(F)F)ccc1CC1CC2(C1)CN(C(=O)N1CC3(CC(c4nnc(C5CC5)[nH]4)C3)C1)C2
S: O=C(N1CC2(CC(Cc3ccc(C(F)(F)F)cn3)C2)C1)N1CC2(CC(c3nnc(C4CCC4)[nH]3)C2)C1
Exam item: Rank ascending by IC50. Put the labels in the requested order and list them out.
Marked response: R, S, P, Q
(R: 0.15 nM, S: 2.04 nM, P: 29.5 nM, Q: 295 nM)

I: O=C(N1CC2(CC(Cc3cnn(C(F)(F)F)c3)C2)C1)N1CC2(CC(c3nc(C4(O)CC4)n[nH]3)C2)C1
II: N#Cc1cc(C(F)(F)F)ncc1CC1CC2(C1)CN(C(=O)N1CC3(CC(c4nnc(C5(O)CC5)[nH]4)C3)C1)C2
Exam item: // which entry reports the smaller IC50, I or II ? Give the chosen item's label as your response.
Marked response: II
